Each item that follows carries a reported shrunken log2 fold change.
- System: Escherichia coli TOP10;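 further: peptides expressed intracellularly from a pBAD plasmid library in pooled LB shake-flask culture, induced with 0.3% L-arabinose, DNA abundance read by NGS, three biological replicates, DESeq2 with apeglm shrinkage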
- protocol.text: shrunken log2 fold change of peptide-encoding DNA abundance (4.5 h post-induction vs induction); higher = less antimicrobial activity (less host growth inhibition)
- cond: time post-induction: 4.5 h; library: site-saturation at positions 5, 18, 19, 20

Sample answers from the record:
| sequence.chain | shrunken log2 fold change |
| --- | --- |
| RRIRLRPPRLPRPRPRPYPWPRP | -0.141 |
| RRIRCRPPRLPRPRPRPLSQPRP | 0.0133 |
| RRIRGRPPRLPRPRPRPPFIPRP | 0.627 |
| RRIRWRPPRLPRPRPRPRRIPRP | 0.109 |
| RRIRNRPPRLPRPRPRPHPKPRP | 0.187 |
| RRIRPRPPRLPRPRPRPYPWPRP | -0.345 |

Prompt line: Which shrunken log2 fold change value is on record for RRIRTRPPRLPRPRPRPYTTPRP ?
Response line: -0.718

Prompt line: Which shrunken log2 fold change value is on record for RRIRQRPPRLPRPRPRPYRNPRP ?
Response line: -0.0521

Prompt line: Which shrunken log2 fold change value is on record for RRIRYRPPRLPRPRPRPEIWPRP ?
Response line: 0.212

Prompt line: Which shrunken log2 fold change value is on record for RRIRIRPPRLPRPRPRPHHYPRP ?
Response line: -0.429

Prompt line: Which shrunken log2 fold change value is on record for RRIRARPPRLPRPRPRPAWIPRP ?
Response line: 0.116

Prompt line: Which shrunken log2 fold change value is on record for RRIRDRPPRLPRPRPRPQAAPRP ?
Response line: 0.0147

Prompt line: Which shrunken log2 fold change value is on record for RRIRQRPPRLPRPRPRPLWQPRP ?
Response line: 0.296

Prompt line: Which shrunken log2 fold change value is on record for RRIRSRPPRLPRPRPRPENKPRP ?
Response line: -0.125

Prompt line: Which shrunken log2 fold change value is on record for RRIRERPPRLPRPRPRPHSNPRP ?
Response line: -0.255

These data points were gathered from the supplement of paper PMC9112550.
